Listing of entries alongside the reported inhibition of SARS-CoV-2 cytopathic effect.
- Test system: Vero E6 infected with SARS-CoV-2
- Assay summary: inhibition of SARS-CoV-2 cytopathic effect; higher = more antiviral protection, active = above 15
- Condition summary: 1 nM; 48 h
Value kind: inhibition of SARS-CoV-2 cytopathic effect (%)

[[record]]
compound = "CNS(=O)(=O)Cc1ccc2[nH]cc(CCN(C)C)c2c1"
value_unit = "%"
reported_result = 1.16

[[record]]
compound = "COc1cccc(-c2ccc(NC(=O)C3=C(C(=O)O)CCC3)c(F)c2)c1"
value_unit = "%"
reported_result = 2.25

[[record]]
compound = "Cc1nnc(C[C@@H]2C=C(c3ccc(Cl)cc3)c3ccccc3-n3c(C)nnc32)o1"
value_unit = "%"
reported_result = 1.71

[[record]]
compound = "C[C@H]1[C@@H](O)O[C@@H]2O[C@@]3(C)CC[C@H]4[C@H](C)CC[C@@H]1[C@@]24OO3"
value_unit = "%"
reported_result = 0.99

[[record]]
compound = "Cc1sc(N)c(C(=O)c2cccc(C(F)(F)F)c2)c1C"
value_unit = "%"
reported_result = 1.09

[[record]]
compound = "COC(=O)Nc1nc2cc(C(=O)c3cccs3)ccc2[nH]1"
value_unit = "%"
reported_result = 2.2

[[record]]
compound = "CCN(CC)C(=O)/C(C#N)=C/c1cc(O)c(O)c([N+](=O)[O-])c1"
value_unit = "%"
reported_result = -0.37

[[record]]
compound = "Nc1nccc(-c2c(-c3ccc(F)cc3)ncn2C2CCCCC2)n1"
value_unit = "%"
reported_result = 3.7

[[record]]
compound = "C1CCN2C[C@@H]3C[C@@H](CN4CCCC[C@@H]34)[C@H]2C1 [sparteine-sulfate]"
value_unit = "%"
reported_result = 0.15

[[record]]
compound = "Cc1ncc(-c2ccnc(Nc3ccc(S(C)(=O)=O)cc3)n2)n1C(C)C"
value_unit = "%"
reported_result = 0.38

[[record]]
compound = "O=C(NC1(c2ccccc2)CC1)c1c(CN2CCC(N3CCCCC3)CC2)c(-c2cccc(C(F)(F)F)c2)nc2cc(Br)ccc12"
value_unit = "%"
reported_result = 1.74


====

- Tested on: Vero E6 infected with SARS-CoV-2
- Assay summary: inhibition of SARS-CoV-2 cytopathic effect; higher = more antiviral protection, active = above 15
- Condition summary: 100 nM; 48 h
Labels: class 1 for active, class 0 for inactive

[[record]]
compound = "COc1cc(C(=O)N2CCOCC2)cc(OC)c1OC"
assigned_class = "class 0"

[[record]]
compound = "CCc1nc(N)nc(N)c1-c1ccc(Cl)cc1"
assigned_class = "class 0"

[[record]]
compound = "COc1ccc2cc(-c3cc(-c4cc(Cl)cc(Cl)c4)nn3[C@@H](C)c3ccc(C(=O)NCCC(=O)O)cc3)ccc2c1"
assigned_class = "class 0"

[[record]]
compound = "Clc1ccc(C(Cn2ccnc2)OCc2ccsc2Cl)c(Cl)c1 (centres undefined)"
assigned_class = "class 0"

[[record]]
compound = "CCn1cc(-c2cccc(C(F)(F)F)c2)c2sc(C(=N)NC3CCS(=O)(=O)CC3)cc2c1=O"
assigned_class = "class 0"

[[record]]
compound = "N[C@@H](Cc1cc(CP(=O)(O)O)cc(-c2ccccc2Cl)c1)C(=O)O"
assigned_class = "class 0"

[[record]]
compound = "C[C@H](Nc1cc(NS(=O)(=O)N2CCC2)nc(SCc2cccc(F)c2F)n1)[C@@H](O)CO"
assigned_class = "class 0"

[[record]]
compound = "CCNC(=O)CCC/C=C\\C[C@@H]1[C@@H](/C=C/[C@@H](O)CCc2ccccc2)[C@H](O)C[C@@H]1O"
assigned_class = "class 0"

[[record]]
compound = "O=C(O)c1ccccc1S"
assigned_class = "class 0"

[[record]]
compound = "Nc1nnc(Sc2ncc([N+](=O)[O-])s2)s1"
assigned_class = "class 0"

[[record]]
compound = "CCOC(=O)[C@H](CCc1ccccc1)N[C@@H](C)C(=O)N1Cc2cc(OC)c(OC)cc2C[C@H]1C(=O)O"
assigned_class = "class 0"

[[record]]
compound = "COc1ccc([C@@H]2CC(=O)c3c(O)cc(O[C@@H]4O[C@H](CO)[C@@H](O)[C@H](O)[C@H]4O[C@@H]4O[C@@H](C)[C@H](O)[C@@H](O)[C@H]4O)cc3O2)cc1O"
assigned_class = "class 0"

[[record]]
compound = "N#Cc1ccc2[nH]cc(CCCCN3CCN(c4ccc5oc(C(N)=O)cc5c4)CC3)c2c1"
assigned_class = "class 0"

[[record]]
compound = "O=C(O)c1cnn(-c2nc3cc(OC(F)(F)F)c(Cl)cc3[nH]2)c1"
assigned_class = "class 0"

[[record]]
compound = "Cc1cccc(/C=N/Nc2cc(N3CCOCC3)n3nc(-c4ccncc4)cc3n2)c1"
assigned_class = "class 1"

[[record]]
compound = "COC(=O)[C@@H](N)CS"
assigned_class = "class 0"

[[record]]
compound = "O=C[C@H](F)[C@@H](O)[C@@H](O)[C@H](O)CO"
assigned_class = "class 0"

[[record]]
compound = "C/C(=C\\c1csc(C)n1)[C@@H]1C[C@@H]2O[C@]2(C)CCC[C@H](C)[C@H](O)[C@@H](C)C(=O)C(C)(C)[C@@H](O)CC(=O)N1 [ixabepilone]"
assigned_class = "class 0"

[[record]]
compound = "N[C@@]1(C(=O)O)CC[C@H]2[C@H](C(=O)O)[C@H]21"
assigned_class = "class 0"

[[record]]
compound = "O=C(c1ccc(-c2ccc(Cl)cc2)o1)N(Cc1ccccn1)c1ccc(N2CCNCC2)cc1"
assigned_class = "class 0"

[[record]]
compound = "CCn1cnc(C(=O)NC)c1C(=O)NC"
assigned_class = "class 0"

[[record]]
compound = "C[C@H](CCC(=O)O)[C@H]1CC[C@H]2[C@@H]3C[C@H](O)[C@@H]4C[C@H](O)CC[C@]4(C)[C@H]3CC[C@]12C"
assigned_class = "class 0"

[[record]]
compound = "COc1cccc(C2(O)CCCCC2CN(C)C)c1 (centres undefined)"
assigned_class = "class 0"

[[record]]
compound = "CCNCCS(=O)(=O)NC[C@@]1(c2ccccc2)SC(NC(=O)C(C)(C)C)=NN1C(=O)C(C)(C)C"
assigned_class = "class 0"

